Source of measurements: patent EP1958941A1

Hi there, I'd appreciate the recorded CAI (%) Inhibition for every entry that follows.
# Test system: rabbit brush border membrane vesicles (BBMV)
# method description: inhibition of cholesterol uptake in rabbit brush border membrane vesicles (scavenger receptor-mediated uptake of radiolabelled cholesterol ester from donor particles)
# Format: biochemical
# stated conditions: inhibition of uptake of radiolabelled cholesterol ester from loaded donor particles into the BBMV bilayer; test concentration not given
Entry rule: numbers only, all in %.

Kindly note the recorded CAI (%) Inhibition for C[N+](C)(C)CCNC(=O)c1ccc(N2C(=O)O[C@H](CO)[C@H]2c2ccc(OCc3ccccc3)cc2)cc1 , which is 29

Value of CAI (%) Inhibition reported for the compound C[N+]1(CCNC(=O)c2ccc(N3C(=O)O[C@H](CO)[C@H]3c3ccc(OCc4ccccc4)cc3)cc2)CCOCC1.[I-] is 24

CAI (%) Inhibition reading for O=C1[C@H](CC[C@H](O)c2ccc(F)cc2)[C@@H](c2ccc(O)cc2)N1c1ccc(F)cc1 [Ezetimibe, reference compound] : 15
